- experiment-notes: The drug is tested on Ruminococcus lactaris strain: ATCC29176 for biotransformation. The drug concentrations were measured before and after a 12-h incubation by liquid-chromatography-coupled mass spectrometry (LC–MS)
- study-conditions: 2 µM

molecule	Bacterial Biotransformation
CCN1CCCC1CNC(=O)c1cc(S(N)(=O)=O)ccc1OC (stereo not drawn) [SULPIRIDE]	Compound NOT metabolized
CN(C)CCc1c[nH]c2ccc(CS(=O)(=O)N3CCCC3)cc12	Compound NOT metabolized
CC[C@@]1(O)C(=O)OCc2c1cc1n(c2=O)Cc2cc3c(CN(C)C)c(O)ccc3nc2-1	Compound NOT metabolized
CSc1ccc2c(c1)C(N1CCN(C)CC1)Cc1ccccc1S2.O=C(O)/C=C\C(=O)O (stereo not drawn)	Compound NOT metabolized
CCC(=O)NCC[C@@H]1CCc2ccc3c(c21)CCO3	Compound NOT metabolized
CC[C@@H](CO)NC(=O)[C@@H]1C=C2c3cccc4c3c(cn4C)C[C@H]2N(C)C1.O=C(O)/C=C\C(=O)O [METHYSERGIDE MALEATE]	Compound metabolized
O=C1CC2(CCCC2)CC(=O)N1CCCCN1CCN(c2ncccn2)CC1	Compound NOT metabolized
CN(C)C(=O)Oc1cc(OC(=O)N(C)C)cc(C(O)CNC(C)(C)C)c1 (stereo not drawn)	Compound NOT metabolized
Cc1nc2n(c(=O)c1CCN1CCC(c3noc4cc(F)ccc34)CC1)CCCC2	Compound metabolized
CNS(=O)(=O)Cc1ccc2[nH]cc(CCN(C)C)c2c1.O=C(O)CCC(=O)O [SUMATRIPTAN SUCCINATE]	Compound NOT metabolized
O=c1[nH]c2ccccc2n1C1CCN(CCCC(c2ccc(F)cc2)c2ccc(F)cc2)CC1 [PIMOZIDE]	Compound NOT metabolized
CCCCC1=NC2(CCCC2)C(=O)N1Cc1ccc(-c2ccccc2-c2nnn[nH]2)cc1	Compound metabolized
CC(=O)O[C@]1(C(C)=O)CC[C@H]2[C@@H]3C=C(Cl)C4=CC(=O)[C@@H]5C[C@@H]5[C@]4(C)[C@H]3CC[C@@]21C [CYPROTERONE ACETATE]	Compound NOT metabolized
O=C(O[C@H]1C[C@H]2CC[C@@H](C1)[N+]21CCCC1)C(O)(c1ccccc1)c1ccccc1.[Cl-] [TROSPIUM CHLORIDE]	Compound NOT metabolized
Cc1ccccc1C(OCCN(C)C)c1ccccc1.O=C(O)CC(O)(CC(=O)O)C(=O)O (stereo not drawn) [ORPHENADRINE CITRATE]	Compound NOT metabolized
COC(=O)[C@H](c1ccccc1Cl)N1CCc2sccc2C1.O=S(=O)(O)O [CLOPIDOGREL BISULFATE]	Compound NOT metabolized
O=C1NCC2(CCN(CCc3ccccc3)CC2)O1 [FENSPIRIDE]	Compound NOT metabolized
COc1ccc2c3c1O[C@H]1C[C@@H](O)C=C[C@@]31CCN(C)C2	Compound NOT metabolized

* * *

- experiment-notes: The drug is tested on Bacteroides xylanisolvens strain: DSM18836 for biotransformation. The drug concentrations were measured before and after a 12-h incubation by liquid-chromatography-coupled mass spectrometry (LC–MS)
- study-conditions: 2 µM
readout: Bacterial Biotransformation

compound	readout	observed
Cc1ccc(S(=O)(=O)NC(=O)NN2CCCCCC2)cc1 [TOLAZAMIDE]	Bacterial Biotransformation	Compound metabolized
Nc1nc(N)nc(-c2cc(Cl)ccc2Cl)n1.O=C(O)/C=C\C(=O)O [IRSOGLADINE MALEATE]	Bacterial Biotransformation	Compound NOT metabolized
CCC1(c2ccc(N)cc2)CCC(=O)NC1=O (stereo unspecified) [AMINOGLUTETHIMIDE]	Bacterial Biotransformation	Compound NOT metabolized
CNC(=C[N+](=O)[O-])NCCSCc1ccc(CN(C)C)o1	Bacterial Biotransformation	Compound metabolized
O=C(Nc1ccccc1)OCC(CN1CCCCC1)OC(=O)Nc1ccccc1 (stereo unspecified)	Bacterial Biotransformation	Compound NOT metabolized
CCN1CCCC1CNC(=O)c1cc(S(=O)(=O)CC)c(N)cc1OC (stereo unspecified) [AMISULPRIDE]	Bacterial Biotransformation	Compound NOT metabolized

* * *

- study-conditions: victivallis vadensis, 12 h, 2 µM
- Description: The drug is tested on Victivallis vadensis strain: ATCC BAA-548 for biotransformation. The drug concentrations were measured before and after a 12-h incubation by liquid-chromatography-coupled mass spectrometry (LC–MS)
readout: Bacterial Biotransformation

molecule	readout	observed
C=CC[C@@H]1/C=C(\C)C[C@H](C)C[C@H](OC)[C@H]2O[C@@](O)(C(=O)C(=O)N3CCCC[C@H]3C(=O)O[C@H](/C(C)=C/[C@@H]3CC[C@@H](O)[C@H](OC)C3)[C@H](C)[C@@H](O)CC1=O)[C@H](C)C[C@@H]2OC.O [TACROLIMUS]	Bacterial Biotransformation	Compound metabolized
Nc1nc2ccc(OC(F)(F)F)cc2s1 [RILUZOLE]	Bacterial Biotransformation	Compound NOT metabolized
O=P1(N(CCCl)CCCl)NCCCO1 (stereo not given) [CYCLOPHOSPHAMIDE ANHYDROUS]	Bacterial Biotransformation	Compound NOT metabolized
O=C(NCc1ccccc1)OCCO [BURAMATE]	Bacterial Biotransformation	Compound NOT metabolized
C[C@]12C=CC(=O)C=C1CC[C@@H]1[C@@H]2C(=O)C[C@@]2(C)[C@H]1CC[C@]2(O)C(=O)CO [PREDNISONE]	Bacterial Biotransformation	Compound NOT metabolized
CO[C@]12C[C@@H](COC(=O)c3cncc(Br)c3)CN(C)[C@@H]1Cc1cn(C)c3cccc2c13 [NICERGOLINE]	Bacterial Biotransformation	Compound NOT metabolized
CNCC[C@H](Oc1cccc2ccccc12)c1cccs1 [DULOXETINE]	Bacterial Biotransformation	Compound NOT metabolized
COc1ccc([C@@H]2Sc3ccccc3N(CCN(C)C)C(=O)[C@@H]2OC(C)=O)cc1 [DILTIAZEM]	Bacterial Biotransformation	Compound metabolized
COC1=C(OC)C(=O)C(CCCCCCCCCCO)=C(C)C1=O [IDEBENONE]	Bacterial Biotransformation	Compound NOT metabolized
COC(=O)[C@H]1[C@H]2C[C@@H]3c4[nH]c5cc(OC)ccc5c4CCN3C[C@H]2C[C@@H](OC(=O)c2cc(OC)c(OC)c(OC)c2)[C@@H]1OC [RESERPINE]	Bacterial Biotransformation	Compound NOT metabolized

* * *

- study-conditions: bacteroides thetaiotaomicron, 12 h, 2 µM
- Description: The drug is tested on Bacteroides thetaiotaomicron strain: 7330 for biotransformation. The drug concentrations were measured before and after a 12-h incubation by liquid-chromatography-coupled mass spectrometry (LC–MS)

molecule	Bacterial Biotransformation
Cc1cc2c(s1)Nc1ccccc1N=C2N1CCN(C)CC1 [OLANZAPINE]	Compound NOT metabolized
CN1[C@@H]2CC[C@H]1C[C@@H](OC(=O)c1c[nH]c3ccccc13)C2 [TROPISETRON]	Compound NOT metabolized
CCC(COC(=O)c1cc(OC)c(OC)c(OC)c1)(c1ccccc1)N(C)C.O=C(O)/C=C\C(=O)O (stereo not drawn)	Compound metabolized
CC(=O)OCC(CCn1cnc2cnc(N)nc21)COC(C)=O [FAMCICLOVIR]	Compound metabolized
CCCc1nc2c(C)cc(-c3nc4ccccc4n3C)cc2n1Cc1ccc(-c2ccccc2C(=O)O)cc1	Compound metabolized
O=C(O)COCCN1CCN(C(c2ccccc2)c2ccc(Cl)cc2)CC1 (stereo not drawn) [CETIRIZINE]	Compound metabolized
CN(C/C=C/C#CC(C)(C)C)Cc1cccc2ccccc12 [TERBINAFINE]	Compound NOT metabolized
C=C[C@H]1CN2CC[C@H]1C[C@H]2[C@H](O)c1ccnc2ccc(OC)cc12.C=C[C@H]1CN2CC[C@H]1C[C@H]2[C@H](O)c1ccnc2ccc(OC)cc12.O.O.O=S(=O)(O)O [QUININE SULFATE]	Compound NOT metabolized

* * *

- experiment-notes: The drug is tested on Bacteroides caccae strain: ATCC43185 for biotransformation. The drug concentrations were measured before and after a 12-h incubation by liquid-chromatography-coupled mass spectrometry (LC–MS)
- study-conditions: 2 µM
readout: Bacterial Biotransformation

compound	readout	observed
COc1cc2nc(N3CCN(C(=O)C4CCCO4)CC3)nc(N)c2cc1OC (configuration not stated)	Bacterial Biotransformation	Compound NOT metabolized
CCN(CC)CCOC(=O)C(Cc1cccc2ccccc12)CC1CCCO1.O=C(O)C(=O)O (configuration not stated) [NAFRONYL OXALATE]	Bacterial Biotransformation	Compound NOT metabolized
CS(=O)(=O)O.OC(CCN1CCCCC1)(c1ccccc1)c1ccccc1 [PRIDINOL METHANESULFONATE]	Bacterial Biotransformation	Compound NOT metabolized
CC[C@H](C)C(=O)O[C@H]1CCC=C2C=C[C@H](C)[C@H](CC[C@@H]3C[C@@H](O)CC(=O)O3)[C@H]21	Bacterial Biotransformation	Compound metabolized
CSc1ccc2c(c1)C(N1CCN(C)CC1)Cc1ccccc1S2.O=C(O)/C=C\C(=O)O (configuration not stated)	Bacterial Biotransformation	Compound NOT metabolized
Cc1nc2n(c(=O)c1CCN1CCC(c3noc4cc(F)ccc34)CC1)CCCC2O (configuration not stated)	Bacterial Biotransformation	Compound metabolized
CC(C)C[C@H]1C(=O)N2CCC[C@H]2[C@]2(O)O[C@](NC(=O)[C@@H]3C=C4c5cccc6[nH]c(Br)c(c56)C[C@H]4N(C)C3)(C(C)C)C(=O)N12.CS(=O)(=O)O [BROMOCRIPTINE MESYLATE]	Bacterial Biotransformation	Compound metabolized
CC(C)NCC(O)COc1ccc(CCOCC2CC2)cc1 (configuration not stated)	Bacterial Biotransformation	Compound NOT metabolized
NS(=O)(=O)c1cc2c(cc1Cl)N=C(CSCc1ccccc1)NS2(=O)=O [BENZTHIAZIDE]	Bacterial Biotransformation	Compound NOT metabolized
CC(=O)Nc1ccc(OC(C)=O)cc1 [DIACETAMATE]	Bacterial Biotransformation	Compound metabolized
CN1CCc2cccc3c2[C@H]1Cc1ccc(O)c(O)c1-3	Bacterial Biotransformation	Compound NOT metabolized
CCCCC(=O)N(Cc1ccc(-c2ccccc2-c2nnn[nH]2)cc1)[C@H](C(=O)O)C(C)C	Bacterial Biotransformation	Compound NOT metabolized
